# System name: HCMV core nuclear egress complex (core NEC), pUL50-pUL53 (Human herpesvirus 5 strain AD169, UniProt P16791+P16794)
# Construct: pUL50 His-tagged, pUL53 coated on plate; heterodimer
# Sequence (P16791 1-181): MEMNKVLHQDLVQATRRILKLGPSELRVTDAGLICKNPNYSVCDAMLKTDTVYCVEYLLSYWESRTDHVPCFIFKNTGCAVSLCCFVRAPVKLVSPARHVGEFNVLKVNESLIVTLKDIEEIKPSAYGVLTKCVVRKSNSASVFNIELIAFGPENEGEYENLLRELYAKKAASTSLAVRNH
# Sequence (P16794 50-292): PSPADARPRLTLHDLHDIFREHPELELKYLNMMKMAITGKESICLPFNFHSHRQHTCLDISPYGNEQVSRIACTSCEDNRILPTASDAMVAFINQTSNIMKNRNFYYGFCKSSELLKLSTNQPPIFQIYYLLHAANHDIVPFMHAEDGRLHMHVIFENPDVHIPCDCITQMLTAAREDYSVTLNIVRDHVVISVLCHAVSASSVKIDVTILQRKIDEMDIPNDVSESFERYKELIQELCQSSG
# Protocol notes: ELISA-type pUL50-pUL53 interaction inhibition assay, anti-His-HRP detection
Quantity measured: pIC50
pIC50 field: float, defined as -log10 of concentration (mol/L).

response.value for "O=C(O)c1ccccc1-c1c2cc(Br)c(=O)[c]([Hg+])c-2oc2cc(O)c(Br)cc12" (field: pIC50) = 7.42

Cited source: paper PMC7998563
